B1: Caulobacter ParB omega fusion; a variant is named by its letters at X, in order, B8GW30 (parent)
chain: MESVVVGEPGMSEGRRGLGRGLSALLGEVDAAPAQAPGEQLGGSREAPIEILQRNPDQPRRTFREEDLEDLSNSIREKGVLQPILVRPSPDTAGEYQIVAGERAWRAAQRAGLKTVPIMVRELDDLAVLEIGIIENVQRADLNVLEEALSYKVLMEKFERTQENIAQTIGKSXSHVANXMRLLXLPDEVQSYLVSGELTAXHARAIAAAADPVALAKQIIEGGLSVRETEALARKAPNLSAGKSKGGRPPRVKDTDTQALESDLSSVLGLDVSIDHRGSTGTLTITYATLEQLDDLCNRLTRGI

# Variants of: B1
# RUN DESCRIPTION: one-hybrid fitness for binding NBS DNA (the Noc-binding site; scaled: cognate 1, non-cognate 0); higher = stronger binding
# TEST CONTEXT: with NBS DNA site
The full ranking holds about 81,000 sequences; the median of “one-hybrid fitness for binding NBS DNA” is about -0.1, and the highest 2% start at about 0.36. The list comes from a sample in which the highest values are over-represented; it also holds close analogues and randomly drawn sequences.
A collection of variants and their measured one-hybrid fitness for binding NBS DNA
QUANTITY: one-hybrid fitness for binding NBS DNA

[[record]]
mutant_designation = "NRAT"
recorded_result = "≤ 0.2"

[[record]]
mutant_designation = "TKTV"
recorded_result = "≤ 0.2"

[[record]]
mutant_designation = "IDAR"
recorded_result = "≤ 0.2"

[[record]]
mutant_designation = "PVAE"
recorded_result = "≤ 0.2"

[[record]]
mutant_designation = "QGMV"
recorded_result = "≤ 0.2"

[[record]]
mutant_designation = "RKCS"
recorded_result = 0.525

[[record]]
mutant_designation = "QHGA"
recorded_result = 0.208

[[record]]
mutant_designation = "QPFT"
recorded_result = "≤ 0.2"

[[record]]
mutant_designation = "MFQS"
recorded_result = "≤ 0.2"

[[record]]
mutant_designation = "QRAT"
recorded_result = 0.797

[[record]]
mutant_designation = "QRFT"
recorded_result = 0.723

[[record]]
mutant_designation = "QARR"
recorded_result = 0.973

[[record]]
mutant_designation = "EYHR"
recorded_result = "≤ 0.2"

[[record]]
mutant_designation = "RWDE"
recorded_result = "≤ 0.2"

[[record]]
mutant_designation = "FHAS"
recorded_result = "≤ 0.2"

[[record]]
mutant_designation = "PAHQ"
recorded_result = "≤ 0.2"

[[record]]
mutant_designation = "LQHD"
recorded_result = "≤ 0.2"

[[record]]
mutant_designation = "QSFT"
recorded_result = 0.315

[[record]]
mutant_designation = "WRPY"
recorded_result = "≤ 0.2"

[[record]]
mutant_designation = "RREA"
recorded_result = 0.44

[[record]]
mutant_designation = "RKSA"
recorded_result = 0.284

[[record]]
mutant_designation = "ALLT"
recorded_result = "≤ 0.2"

[[record]]
mutant_designation = "REHM"
recorded_result = "≤ 0.2"

[[record]]
mutant_designation = "NAEM"
recorded_result = "≤ 0.2"

[[record]]
mutant_designation = "WVEH"
recorded_result = "≤ 0.2"

[[record]]
mutant_designation = "PEMV"
recorded_result = "≤ 0.2"

[[record]]
mutant_designation = "AIGW"
recorded_result = "≤ 0.2"

[[record]]
mutant_designation = "FLFY"
recorded_result = "≤ 0.2"

[[record]]
mutant_designation = "PPMS"
recorded_result = "≤ 0.2"

[[record]]
mutant_designation = "QLGA"
recorded_result = "≤ 0.2"

[[record]]
mutant_designation = "RGSS"
recorded_result = "≤ 0.2"

[[record]]
mutant_designation = "FRGT"
recorded_result = "≤ 0.2"

[[record]]
mutant_designation = "RKCP"
recorded_result = "≤ 0.2"

[[record]]
mutant_designation = "RMCS"
recorded_result = 0.383

[[record]]
mutant_designation = "RCCS"
recorded_result = 0.46

[[record]]
mutant_designation = "GNYC"
recorded_result = "≤ 0.2"

[[record]]
mutant_designation = "YNRS"
recorded_result = "≤ 0.2"

[[record]]
mutant_designation = "RTCH"
recorded_result = 0.234

[[record]]
mutant_designation = "RTCS"
recorded_result = 0.467

[[record]]
mutant_designation = "LVQT"
recorded_result = "≤ 0.2"

[[record]]
mutant_designation = "ESDR"
recorded_result = "≤ 0.2"

[[record]]
mutant_designation = "QSGA"
recorded_result = 0.291

[[record]]
mutant_designation = "RKCN"
recorded_result = "≤ 0.2"

[[record]]
mutant_designation = "FIMG"
recorded_result = "≤ 0.2"

[[record]]
mutant_designation = "NVRS"
recorded_result = "≤ 0.2"

[[record]]
mutant_designation = "QARD"
recorded_result = 0.23

